# credit: ChEMBL document CHEMBL1143050

- protocol_description: Permeability coefficient through artificial membrane in presence of unstirred water layer by PAMPA
measured_parameter: LogP app
Give only the figure.

Use the examples below as a reference point.
CCN(CC)C(=O)SCc1ccc(Cl)cc1 [THIOBENCARB] = -4.69
Nc1cccc(Cl)c1 [3-CHLOROANILINE] = -4.44
NC(=O)[C@@H](N)Cc1c[nH]c2ccccc12 = -5.56
O=[N+]([O-])c1ccccc1O [NITROPHENOLATE] = -4.24
Nc1ccc(Cl)cc1 [4-CHLOROANILINE] = -4.38
O=C1NC(=O)C(c2ccccc2)(c2ccccc2)N1 [PHENYTOIN] = -4.41
CC(CCc1ccccc1)NCC(O)c1ccc(O)c(C(N)=O)c1 (stereo not drawn) [LABETALOL] = -5.18

// switching to the query compound
Exercise: // LogP app lookup, key: c1ccc(Nc2ccccc2)cc1 [DIPHENYLAMINE]
Key: -5.51
